test system: OCI-AML5 cells expressing shRNAs targeting CDK1, 2, 4, 7, 9, cyclin K; test: Dose response in OCI-AML5 expressing shRNAs targeting CDK1, 2, 4, 7, 9, cyclin K or control; type: cell-based, H. sapiens; settings: Homo sapiens, OCI-AML-5, OCI-AML5 expressing shRNA CCNK (cyclin K); read-out: IC50 shRNA CCNK
parameter_measured: IC50 (nM)

Worked set:
{"compound": "COc1ccc(CC(=O)Nc2ncc(SCc3cccnc3)s2)cc1 [UOM-005201]", "IC50, nM": 2010}
{"compound": "O=C(Cc1ccc(C(F)(F)F)cc1)Nc1ncc(SCc2cccnc2)s1 [UOM-005203]", "IC50, nM": 3020}
{"compound": "O=C(Cc1ccc(-c2ccncc2)cc1)Nc1ncc(SCc2cccnc2)s1 [UOM-005550]", "IC50, nM": 481}

[A] O=C(Cc1ccc(NC(=O)c2cccnc2)cc1)Nc1ncc(SCc2cccnc2)s1 [UOM-005475]
[B] CC(=O)N[C@@H]1CCC[C@H](C(=O)Nc2cc(-c3cnn4c3CC(C)(C)C4)c(Cl)cn2)C1 [AZD4573, reference compound]
Query block: # return whichever of A and B has the smaller IC50 Respond with the label that goes with your answer.
Result block: B

[A] O=C(Cc1ccc(-c2ccccn2)cc1)Nc1ncc(SCc2cccnc2)s1 [UOM-005636]
[B] O=C(Cc1ccc2ccccc2c1)Nc1ncc(SCc2cccnc2)s1 [UOM-005428]
Query block: # return whichever of A and B has the smaller IC50 Respond with the label that goes with your answer.
Result block: A
